Assay: Intrinsic clearance in mouse hepatocytes measured per million cells at 2 uM incubated for 15 to 120 mins by LC-MS/MS analysis
Format: ADME, cell-based, Hepatocyte
Conditions: time 15-120 min, read-out: CLH
Below, each of the molecules is paired with its reported hepatocyte CLint at 2 µM value.

>  <Molecular string>
OC[C@H]1O[C@@H](Sc2cncc(Br)c2)[C@H](O)[C@@H](n2cc(-c3cc(F)c(F)c(F)c3)nn2)[C@H]1O

>  <Unit descriptor>
µL/min/1e6 cells

>  <hepatocyte CLint at 2 µM>
1.1

$$$$
>  <Molecular string>
OC[C@H]1O[C@@H](Sc2ccc(Cl)c(Cl)c2)[C@H](O)[C@@H](n2cc(-c3cc(F)c(F)c(F)c3)nn2)[C@H]1O

>  <Unit descriptor>
µL/min/1e6 cells

>  <hepatocyte CLint at 2 µM>
0.8

$$$$
>  <Molecular string>
OC[C@H]1O[C@@H](Sc2cncc(Br)c2)[C@H](O)[C@@H](n2cc(-c3cc(F)c(Cl)c(F)c3)nn2)[C@H]1O

>  <Unit descriptor>
µL/min/1e6 cells

>  <hepatocyte CLint at 2 µM>
0.6

$$$$
